These measurements were taken from patent US10342796B2.

test system: N87 (HER2 Amp); experiment: Growth inhibition GI50 in vitro (CCK8/MTT, 72 h); assay type: cell-based, human; details: Homo sapiens; HER2 positive cell line; range of GI50; read-out: GI50 N87
recorded.endpoint: GI50

Sample records with GI50:
INSERT INTO results (line_notation, recorded_endpoint, test_value) VALUES
  ('C=CC(=O)Nc1cc(Nc2cc(Nc3ccc(F)c(Cl)c3)ncn2)c(OC)cc1OCCN(C)C', 'GI50', '0.01 to 0.1 µM'),
  ('C=CC(=O)Nc1cc(Nc2cc(Nc3cc(F)cc(Br)c3)ncn2)c(OC)cc1N(C)CCN(C)C', 'GI50', '< 0.01 µM'),
  ('C=CC(=O)Nc1cc(Nc2nccc(-n3ccc4c(C)cccc43)n2)c(OC)cc1N(C)CCN(C)C', 'GI50', '0.01 to 0.1 µM'),
  ('C=CC(=O)Nc1cc(Nc2nccc(Nc3cccc(Br)c3)n2)c(OC)cc1N(C)CCN(C)C', 'GI50', '0.01 to 0.1 µM');

Task: Value wanted: GI50 (N87 (HER2 Amp)) of entry C=CC(=O)Nc1cc(Nc2ncnc(Nc3ccc(F)c(Cl)c3)n2)c(OC)cc1N(C)CCN(C)C
Result: 0.01 to 0.1 µM

Task: Value wanted: GI50 (N87 (HER2 Amp)) of entry C=CC(=O)Nc1cc(Nc2cc(-c3cn(C)c4ccccc34)ncn2)c(OC)cc1N1CCN(CCN2CCCC2)CC1
Result: 0.1 to 1 µM

Task: Value wanted: GI50 (N87 (HER2 Amp)) of entry C=CC(=O)Nc1cc(Nc2cc(Nc3ccc(F)c(Cl)c3)ncn2)c(OC)cc1N1CCN(C2CCN(C)CC2)CC1
Result: < 0.01 µM

---

test system: N87 (HER2 Amp); assay: Growth inhibition GI50 in vitro (CCK8/MTT, 72 h); type: cell-based, human; details: Homo sapiens; HER2 positive cell line; range of GI50; read-out: GI50 N87
recorded.endpoint: GI50

Task: Quick one: GI50 for C=CC(=O)Nc1cc(Nc2cc(-c3cn(C)c4ccc(F)cc34)ncn2)c(OC)cc1N(C)CCN(C)C ?
Result: 10 to 100 nM

Task: Quick one: GI50 for C=CC(=O)Nc1cc(Nc2nccc(-n3ccc4ccc(C#N)cc43)n2)c(OC)cc1N(C)CCN(C)C ?
Result: 100 to 1000 nM

Task: Quick one: GI50 for C=CC(=O)Nc1cc(Nc2nccc(Nc3ccc(OCc4ccccn4)c(Cl)c3)n2)c(OC)cc1N(C)CCN(C)C ?
Result: 10 to 100 nM

Task: Quick one: GI50 for C=CC(=O)Nc1cc(Nc2nccc(-n3ccc4cc(F)ccc43)n2)c(OC)cc1N(C)CCN(C)C ?
Result: 10 to 100 nM

Task: Quick one: GI50 for C=CC(=O)Nc1cc(Nc2nccc(Nc3cccc(Cl)c3)n2)c(OC)cc1N(C)CCN(C)C ?
Result: < 10 nM

---

Test system: HCC827 (EGFR dE746-A750)
Test: Growth inhibition GI50 in vitro (CCK8/MTT, 72 h)
Format: cell-based, human
Conditions: Homo sapiens; HCC827, EGFR dE746-A750; read-out: GI50
Description: PC-9ER is an acquired Erlotinib resistance cell line of PC-9 cells developed by the investor. […] The four cell lines above were cultured with 1×RPMI1640 complete medium (supplement with 10% FBS). […] The suspension cells were collected by centrifugation. The supernatant was discard and the cell pellet was resuspended and counted. […] Dojindo CCK8 reagent kit was used as MTT assay. […] FC meter was used as microplate reader. […]
recorded.endpoint: GI50

Task: Quick one: GI50 for C=CC(=O)Nc1cc(Nc2nccc(-c3cn(C)c4ccccc34)n2)c(OC)cc1N(C)CCN(C)C [AZD9291, reference compound] ?
Result: 15.6 nM

Task: Quick one: GI50 for C=CC(=O)Nc1cc(Nc2nccc(-n3cnc4ccccc43)n2)c(OC)cc1N(C)CCN(C)C ?
Result: 12.6 nM

Task: Quick one: GI50 for C=CC(=O)Nc1cc(Nc2nccc(Nc3cccc(Cl)c3)n2)c(OC)cc1N(C)CCN(C)C ?
Result: 2.3 nM

Task: Quick one: GI50 for C=CC(=O)Nc1cc(Nc2ncc(Cl)c(Nc3ccc(OCc4ccccn4)c(Cl)c3)n2)c(OC)cc1N(C)CCN(C)C ?
Result: 6.4 nM

Task: Quick one: GI50 for C=CC(=O)Nc1cc(Nc2cc(-c3cn(C(C)C)c4ccccc34)ncn2)c(OC)cc1N(C)CCN(C)C ?
Result: 9 nM

Task: Quick one: GI50 for C=CC(=O)Nc1cc(Nc2ncnc(Nc3cccc(Br)c3)n2)c(OC)cc1N1CCC(N2CCCC2)CC1 ?
Result: 2.3 nM
